- tgt: T1, recombinant human VEGF165 (human, UniProt P15692-4 27-191, biotinylated in the competition assays)
- T1 construct: Bought protein; also called hVEGF165; rhVEGF165
- experimental-details: AlphaScreen, hVEGF165/hVEGFR2-Fc competition
- Parameters: concentration or dose not given beside the values
observable: % inhibition

[[record]]
binder = "VEGFBII114D02 (VHH) VHH: EVQLVESGGGLVQTGGSLRLSCEVSGRTFSSYSMGWFRQAPGKEREFVVAISKGGYKYDSVSLEGRFTISRDNAKNTVYLQINSLRPEDTAVYYCASSRAYGSSRLRLADTYEYWGQGTLVTVSS"
observable = "% inhibition"
observed_value = "100%"

[[record]]
binder = "VEGFBII113E03 (VHH) VHH: EVQLVESGGGLVQTGDSLRLSCEVSGRTFSSYSMGWFRQAQGKEREFVVAISKGGYKYDSVSLEGRFTISKDNAKNTVYLQMNSLRPEDTAVYYCASSRAYGSSRLRLADTYEYWGQGTLVTVSS"
observable = "% inhibition"
observed_value = "100%"

[[record]]
binder = "VEGFBII114C09 (VHH) VHH: EVQLVESGGGLVQPGDSLRLSCEVSGRTFSSYSMGWFRQAPGKEREFVVAISKGGYKYDSVSLEGRFTISKDNAKNTVYLQINSLRPEDTAVYYCASSRAYGSSRLRLADTYEYWGQGTLVTVSS"
observable = "% inhibition"
observed_value = "100%"

[[record]]
binder = "VEGFBII23B04 (VHH, not shown: small tags and cut ends, also called VEGFBII23B4; VEGFBII23B04 (wt)) VHH: EVQLVESGGGLVQTGDSLRLSCEVSGRTFSSYSMGWFRQAQGKEREFVVAISKGGYKYDSVSLEGRFTISKDNAKNTVYLQINSLKPEDTAVYYCASSRAYGSSRLRLADTYEYWGQGTQVTVSS"
observable = "% inhibition"
observed_value = "100%"


Data credit: patent US20140120095A1
